test.system: UniProt:P14902
measurement.description: Inhibition of doxycycline-induced human IDO1 expressed in Trex cells assessed as reduction in kynurenine production treated with 5-fold serial dilution beginning at 400 uM after 24 hrs by microtiter plate reader
Format: cell-based
Listed here are molecules together with their documented pIC50.
pIC50 is a log-scale quantity: -log10 of the concentration expressed in molar.

In: // query pIC50 value for entry Cl.NOCc1cccc(Cl)c1
Out: 7.11

Please look at the following molecule next.
In: Need pIC50, item Cl.NOCc1ccc(I)cc1
Out: 6.74

---

test.system: Indoleamine 2,3-dioxygenase 1 (Homo sapiens, UniProt P14902)
Sequence (P14902 whole entry): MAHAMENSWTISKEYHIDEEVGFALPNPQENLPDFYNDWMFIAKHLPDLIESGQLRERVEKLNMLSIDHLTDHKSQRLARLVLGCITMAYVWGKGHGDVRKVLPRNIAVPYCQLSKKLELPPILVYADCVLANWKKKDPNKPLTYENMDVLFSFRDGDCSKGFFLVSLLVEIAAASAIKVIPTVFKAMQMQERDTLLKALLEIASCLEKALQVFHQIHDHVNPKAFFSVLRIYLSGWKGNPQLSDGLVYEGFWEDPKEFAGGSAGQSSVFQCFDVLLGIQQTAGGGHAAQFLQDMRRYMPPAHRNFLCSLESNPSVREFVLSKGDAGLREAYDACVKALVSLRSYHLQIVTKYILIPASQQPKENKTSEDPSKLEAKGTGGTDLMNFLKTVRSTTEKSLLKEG
measurement.description: Inhibition of IFN gamma induced human IDO1 in HeLa cells assessed as reduction in kynurenine production treated with 3-fold serial dilution beginning at 100 uM after 24 hrs by microtiter plate reader
Type: cell-based
metric: IC50 (nM)
Field: numeric (nM). Do not append units.

In: Given the compound Cl.NOCc1cccc(Cl)c1 , what is its reported IC50?
Out: 134

---

test.system: Indoleamine 2,3-dioxygenase 1 (Homo sapiens, UniProt P14902)
measurement.description: Inhibition of recombinant human IDO1 assessed as reduction in kynurenine production using L-tryptophan as substrate after 60 mins by microplate reader method
metric: pIC50
Please keep in mind that pIC50 is minus log10 of the molar concentration; only the number is needed.

In: What value of measured pIC50 is listed for CC(C)c1ccc(CON)cc1 ?
Out: 4.82

Here is another compound to look at.
In: Any idea what pIC50 was measured for NOCc1ccc(O)cc1 ?
Out: 4.21

---

test.system: Indoleamine 2,3-dioxygenase 1 (Homo sapiens, UniProt P14902)
measurement.description: Inhibition of IFN gamma induced human IDO1 in HeLa cells assessed as reduction in kynurenine production treated with 5-fold serial dilution beginning at 400 uM after 24 hrs by microtiter plate reader
Type: cell-based
metric: IC50 (nM)
Respond with the bare value in nM.

In: State the recorded IC50 for this entry: Cl.NOCc1cccc(Cl)c1
Out: 114

Further cases:
In: For the compound Cl.NOCc1ccc(I)cc1 , what IC50 is on record?
Out: 82

---

test.system: Cytochrome P450 3A4 (Homo sapiens)
Sequence (P08684 whole entry): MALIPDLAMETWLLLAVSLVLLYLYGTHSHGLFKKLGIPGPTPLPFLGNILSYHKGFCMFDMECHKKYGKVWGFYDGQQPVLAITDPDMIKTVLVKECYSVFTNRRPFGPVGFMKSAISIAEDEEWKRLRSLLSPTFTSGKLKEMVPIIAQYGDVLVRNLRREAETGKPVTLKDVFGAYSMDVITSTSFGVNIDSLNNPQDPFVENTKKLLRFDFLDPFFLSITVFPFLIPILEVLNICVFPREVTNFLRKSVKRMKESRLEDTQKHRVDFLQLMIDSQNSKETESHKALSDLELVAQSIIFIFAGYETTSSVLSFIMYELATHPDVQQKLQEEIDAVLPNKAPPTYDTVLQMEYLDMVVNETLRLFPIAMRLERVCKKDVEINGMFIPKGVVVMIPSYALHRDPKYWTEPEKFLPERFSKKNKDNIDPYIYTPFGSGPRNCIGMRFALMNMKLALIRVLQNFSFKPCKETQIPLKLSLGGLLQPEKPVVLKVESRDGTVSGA
metric: pIC50
In textbook form, pIC50 equals minus log to base ten of the concentration in mol/L.

In: What value of pIC50 has been reported for the following molecule? Cl.NOCc1cccc(Cl)c1
Out: 4.82

---

test.system: Indoleamine 2,3-dioxygenase 1 (Homo sapiens, UniProt P14902)
measurement.description: Inhibition of recombinant human IDO1 assessed as reduction in kynurenine production using L-tryptophan as substrate after 60 mins by microplate reader method
metric: IC50 (nM)
State the answer as a number, implicitly in nM.

Study these solved cases before continuing.
In: Test system Indoleamine 2,3-dioxygenase 1 (Homo sapiens, UniProt P14902); read-out IC50; what value for NOC1Cc2ccccc2C1 ?
Out: 10000

In: Would you kindly repeat that for NOCc1ccc(Cl)cc1 ?
Out: 1300

In: Now this one: Cl.NOCc1cccc(Cl)c1
Out: 300

In: Next compound: COc1ccc(CON)cc1
Out: 24000

In: Would you mind doing NOC1CCCc2ccccc21 (centres undefined) as well?
Out: 10000

In: Same read-out for NOCc1cc(F)cc(F)c1 ?
Out: 3400

In: Now this one: NOCc1ccccc1Br
Out: 1600

In: Also check NNc1ccccc1 [PHENYLHYDRAZINE]
Out: 230

Next:
In: # returns recorded IC50 (system: Indoleamine 2,3-dioxygenase 1 (Homo sapiens, UniProt P14902)) for NOC(c1ccccc1)C1CC1 (centres undefined)
Out: 5200

In: Okay, and Cl.NOCc1ccc(I)cc1 ?
Out: 220

In: Next record, please: NOCc1ccccc1F
Out: 1400

In: Query ONCc1ccccc1 next
Out: 6000

In: Now the compound NOCc1cc(C(F)(F)F)ccc1F
Out: 570

In: Continue with NOCc1ccccc1C(F)(F)F
Out: 2500

In: Note, next up: NOCc1ccc(F)cc1C(F)(F)F
Out: 2400

In: And NOCc1cccc(F)c1 ?
Out: 1000

In: COc1cccc(CON)c1O , same question.
Out: 55000

In: Moving on to the next compound: NOCc1ccc(C(F)(F)F)cc1
Out: 8900

---

test.system: Indoleamine 2,3-dioxygenase 1 (Homo sapiens, UniProt P14902)
measurement.description: Inhibition of recombinant human IDO1 assessed as reduction in kynurenine production using L-tryptophan as substrate after 60 mins by microplate reader method
Parameter class (string): assigned from measured IC50. Ranges: low (below 0.9 µM), mid (0.9 µM to below 5 µM), high (5 µM or more)

In: Which category fits this record: NOCc1ccc([N+](=O)[O-])cc1
Out: mid

In: Try the compound NOCc1cccc(Br)c1
Out: low

In: Can you check NOCc1ccc(Cl)c(C(F)(F)F)c1 next?
Out: low

In: Would you kindly repeat that for NOCc1cccc(Cl)c1Cl ?
Out: low

In: # repeat for NOCc1ccc(F)cc1
Out: mid

In: Cool, now NOCc1ccc(C(F)(F)F)cc1F
Out: mid

In: What do you have for NOC1CCc2ccccc21 (stereo unspecified) ?
Out: high

In: What do you have for NOCc1ccc(I)cc1Cl ?
Out: low

Further cases:
In: Lab log: NOCc1ccc(F)cc1F — assign IC50 category
Out: mid

In: Next compound: NOCc1ccccc1I
Out: low

In: Moving on to ONc1ccccc1
Out: high

In: One more compound: NOCc1ccc(Cl)cc1Cl
Out: low

In: Thanks! And COc1ccccc1CON ?
Out: high

In: Would you kindly repeat that for NOCCCc1ccccc1 ?
Out: high

In: Try this compound too: NOCc1ccc(-c2ccccc2)cc1
Out: high

In: Please answer likewise for Cc1cccc(CON)c1
Out: mid

---

test.system: Indoleamine 2,3-dioxygenase 1 (Homo sapiens)
measurement.description: Inhibition of recombinant human IDO1 assessed as reduction in kynurenine production using L-tryptophan as substrate after 60 mins by microplate reader method
Lab note: class by IC50, see Low (below 0.9 µM), Mid (0.9 µM to below 7 µM), High (7 µM or more)

Previously resolved entries follow.
In: // return the class label for COc1ccc(OC)c(CON)c1
Out: Mid

In: Next molecule: NOCc1ccccc1O
Out: High

In: What about NNCc1ccccc1 [BENZYLHYDRAZINE] ?
Out: High

In: Again, but for O=C(NO)c1ccccc1 [BENZOHYDROXAMATE]
Out: High

In: NOCc1cc(Br)cc(Br)c1 ?
Out: Mid

In: Same read-out for NOCc1cc(C(F)(F)F)cc(C(F)(F)F)c1 ?
Out: Mid

In: Next molecule up: NOCc1ccc(Br)cc1
Out: Mid

In: Try this molecule next: COc1cccc(CON)c1
Out: High

Further cases:
In: Hello team, could you let me know which band the following molecule falls into: NOCc1cccc(I)c1
Out: Low

In: Check NOCc1ccc(Cl)c(Cl)c1 too.
Out: Mid

---

test.system: Indoleamine 2,3-dioxygenase 1 (Homo sapiens, UniProt P14902)
measurement.description: Inhibition of recombinant human IDO1 assessed as reduction in kynurenine production using L-tryptophan as substrate after 60 mins by microplate reader method
Sorting guide: entries reporting IC50 beneath 600 nM go in the 1 pile, the rest go in the 0 pile.

In: Dear reviewer, please state whether NOCc1cc(Cl)cc(Cl)c1 has IC50 strictly beneath 600 nM.
Out: 0

In: What do you get for NOC/C=C/c1ccccc1 ?
Out: 0

In: Entry NOCc1cccc(C(F)(F)F)c1 please
Out: 1

In: Queued: NOCc1ccccc1Cl
Out: 0

New cases:
In: Does the reported IC50 of the following compound sit strictly below 600 nM? NOCc1ccccc1
Out: 0
